Tested on: FmlH (Escherichia coli)
Experiment: Inhibition of C-terminal 6His-tagged biotinylated FmIH (Escherichia coli CFT073) expressed in Escherichia coli C600 cells incubated for 1 hr
// classify: if (IC50 < 0.3 µM) yes (1) else no (0)

{"columns": ["structure-smiles-string", "label-class"],
 "data": [
  ["CC(=O)N[C@H]1[C@H](Oc2cccc(C(F)(F)F)c2-c2cc(F)cc(F)c2)O[C@H](CO)[C@H](O)[C@@H]1O", "no (0)"],
  ["CC(=O)N[C@H]1[C@H](Oc2cccc(C(F)(F)F)c2-c2cccc(NS(C)(=O)=O)c2)O[C@H](CO)[C@H](O)[C@@H]1O", "yes (1)"],
  ["CC(=O)N[C@H]1[C@H](Oc2cccc(C(F)(F)F)c2-c2cc(C#N)cc(C(F)(F)F)c2)O[C@H](CO)[C@H](O)[C@@H]1O", "no (0)"],
  ["CC(=O)N[C@@H]1[C@@H](O)[C@@H](O)[C@@H](CO)O[C@H]1C(=O)Nc1ccccc1-c1cccc(NS(C)(=O)=O)c1", "no (0)"],
  ["CC(=O)N[C@H]1[C@H](Oc2cccc(C(F)(F)F)c2-c2ccc(F)c(NS(C)(=O)=O)c2)O[C@H](CO)[C@H](O)[C@@H]1O", "no (0)"],
  ["CC(=O)N[C@H]1[C@H](Oc2cccc(C(F)(F)F)c2-c2ccc(F)c(NS(=O)(=O)c3ccccc3)c2)O[C@H](CO)[C@H](O)[C@@H]1O", "yes (1)"],
  ["CC(=O)N[C@H]1[C@H](Oc2ccccc2-c2cccc(NS(C)(=O)=O)c2)O[C@H](CO)[C@H](O)[C@@H]1O", "yes (1)"],
  ["CC(=O)N[C@H]1[C@H](Oc2cccc(C(F)(F)F)c2-c2cccc(CC#N)c2)O[C@H](CO)[C@H](O)[C@@H]1O", "no (0)"],
  ["CC(=O)N[C@H]1[C@H](Oc2cccc(C(F)(F)F)c2-c2cccc(CS(C)(=O)=O)c2)O[C@H](CO)[C@H](O)[C@@H]1O", "no (0)"],
  ["CS(=O)(=O)Nc1cccc(-c2ccccc2C[C@@H]2O[C@H](CO)[C@H](O)[C@H](O)[C@H]2O)c1", "no (0)"],
  ["CC(=O)N[C@H]1[C@H](Oc2cccc(C(F)(F)F)c2-c2cccc(F)c2F)O[C@H](CO)[C@H](O)[C@@H]1O", "no (0)"],
  ["CC(=O)N[C@H]1[C@H](Oc2cccc(C(F)(F)F)c2-c2cccc(C(=O)NS(C)(=O)=O)c2)O[C@H](CO)[C@H](O)[C@@H]1O", "no (0)"],
  ["COc1cc(-c2c(O[C@@H]3O[C@H](CO)[C@H](O)[C@H](O)[C@H]3NC(C)=O)cccc2C(F)(F)F)cc(C(F)(F)F)c1", "no (0)"],
  ["CC(=O)N[C@H]1[C@H](Oc2cccc(C(F)(F)F)c2-c2ccc(F)cc2)O[C@H](CO)[C@H](O)[C@@H]1O", "yes (1)"]
]}

----------
AUC(0-inf) overview
Assay: AUCinfinity in mouse at 3 mg/kg, iv by LC-MS/MS method
Format: ADME, organism-based
Settings: in vivo

{"columns": ["structure-smiles-string", "AUC(0-inf) (ng·h/mL)"],
 "data": [
  ["CC(=O)N[C@H]1[C@H](Oc2cccc(C(F)(F)F)c2-c2ccc(F)c(F)c2)O[C@H](CO)[C@H](O)[C@@H]1O", 1810],
  ["CC(=O)N[C@H]1[C@H](Oc2cccc(C(F)(F)F)c2-c2ccc(F)cc2)O[C@H](CO)[C@H](O)[C@@H]1O", 3740]
]}

Data provenance is ChEMBL document CHEMBL5528045.
